- assayed_target: Kv7.1/KCNE1 (Homo sapiens, UniProt P51787)
- Construct: cRNA encoding Kv7.1 (UniProt: P51787), KCNE1 (UniProt: P15382.1); expressed in transfected cells; host or cells: Xenopus laevis oocytes (cRNA injection, Kv7.1:KCNE1 3:1 by weight)
- experiment_notes: Two-electrode voltage clamp of Kv7.1/KCNE1 expressed in Xenopus oocytes
- Type: cell-based
- Set-up: unit of the concentration uncertain
- protocol_conditions: 20 μM
- Description: Molecular Biology cRNA encoding Kv7.1 (UniProt: P51787), KCNE1 (UniProt: P15382.1), Nav1.5 (UniProt: Q14524.1), Nav β1 (UniProt: […]), Nav β3 (UniProt: […]), Cav1.2 (GenBank: CAA84346), Cav β3 (Uniprot: P54286), Cav β2 (Uniprot: P54288), and Cav α2δ (Uniprot: P13806) were transcribed using the mMessage mMachine T7 kit (Ambion). […] Xenopus laevis oocytes were recorded in the two-electrode voltage clamp (TEVC) configuration. […]
measured_property: Fitted slope factor of conductance vs voltage relationship (mV)

# compound_string, unit_symbol, observed_value
rows = [
    ("CCCCC/C=C\\C/C=C\\C/C=C\\C/C=C\\CCCC(=O)NCCS(=O)(=O)O", "mV", 18.7),
    ("CCCCC/C=C\\C/C=C\\CCCCCCCC(=O)NCC(=O)O", "mV", 22.1),
    ("CC/C=C\\C/C=C\\C/C=C\\C/C=C\\C/C=C\\C/C=C\\CCC(=O)NCC(=O)O", "mV", 17.9),
    ("CCCCC/C=C\\C/C=C\\CC/C=C\\CCCC(=O)NCC(=O)O", "mV", 20.9),
    ("CCCCC/C=C\\C/C=C\\CCCCCCCC(=O)NCCS(=O)(=O)O", "mV", 12.2),
    ("CCCCC/C=C\\C/C=C\\CC/C=C\\CCCC(=O)NCCS(=O)(=O)O", "mV", 16.8),
]

* * *

- assayed_target: Nav1.5/β1 (Homo sapiens, UniProt Q14524)
- Construct: Nav1.5 (UniProt: Q14524.1); expressed in transfected cells; host or cells: Xenopus laevis oocytes (cRNA injection, Nav1.5:β1 2:1 by weight)
- experiment_notes: Two-electrode voltage clamp of Nav1.5/β1 expressed in Xenopus oocytes
- Assay type: cell-based
- protocol_conditions: 2 μM
measured_property: ΔV0.5 (voltage dependence of inactivation) (mV)
Numbers only; they are read as mV.

# compound_string, observed_value
data = [
    ("CCCCC/C=C\\C/C=C\\CC/C=C\\CCCC(=O)NCC(=O)O", -0.3),
    ("CCCCC/C=C\\C/C=C\\C/C=C\\C/C=C\\CCCC(=O)NCCS(=O)(=O)O", -5.2),
    ("CC/C=C\\C/C=C\\C/C=C\\C/C=C\\C/C=C\\C/C=C\\CCC(=O)NCC(=O)O", -0.3),
    ("CCCCC/C=C\\C/C=C\\CCCCCCCC(=O)NCC(=O)O", -4.3),
    ("CCCCC/C=C\\C/C=C\\CCCCCCCC(=O)NCCS(=O)(=O)O", -8.8),
    ("CCCCC/C=C\\C/C=C\\CC/C=C\\CCCC(=O)NCCS(=O)(=O)O", -3.0),
]

Record summary for CC/C=C\C/C=C\C/C=C\C/C=C\C/C=C\C/C=C\CCC(=O)NCCS(=O)(=O)O : reported ΔV0.5 (voltage dependence of inactivation) = -9.4

* * *

- assayed_target: Kv7.1/KCNE1 (Homo sapiens, UniProt P51787)
- Construct: cRNA encoding Kv7.1 (UniProt: P51787), KCNE1 (UniProt: P15382.1); expressed in transfected cells; host or cells: Xenopus laevis oocytes (cRNA injection, Kv7.1:KCNE1 3:1 by weight)
- experiment_notes: Two-electrode voltage clamp of Kv7.1/KCNE1 expressed in Xenopus oocytes
- Assay type: cell-based
- Design: unit of the concentration uncertain
- protocol_conditions: 2 μM
measured_property: Fitted slope factor of conductance vs voltage relationship (mV)

# compound, observed_value
data = [
    ("CCCCC/C=C\\C/C=C\\CCCCCCCC(=O)NCCS(=O)(=O)O [Lin-taurine, Linoleoyl taurine]", 18.6),
    ("CC/C=C\\C/C=C\\C/C=C\\C/C=C\\C/C=C\\C/C=C\\CCC(=O)NCC(=O)O [DHA-glycine, docosahexaenoyl glycine]", 16.6),
    ("CCCCC/C=C\\C/C=C\\CC/C=C\\CCCC(=O)NCC(=O)O [Pin-glycine]", 17.9),
    ("CCCCC/C=C\\C/C=C\\CC/C=C\\CCCC(=O)NCCS(=O)(=O)O [Pin-taurine]", 18.3),
    ("CC/C=C\\C/C=C\\C/C=C\\C/C=C\\C/C=C\\C/C=C\\CCC(=O)NCCS(=O)(=O)O [DHA-taurine]", 18.6),
    ("CCCCC/C=C\\C/C=C\\CCCCCCCC(=O)NCC(=O)O [Lin-glycine]", 19.2),
    ("CCCCC/C=C\\C/C=C\\C/C=C\\C/C=C\\CCCC(=O)NCCS(=O)(=O)O [N-AT, N-arachidonoyl taurine]", 17.4),
]

* * *

- assayed_target: Kv7.1/KCNE1 (Homo sapiens, UniProt P51787)
- Construct: cRNA encoding Kv7.1 (UniProt: P51787), KCNE1 (UniProt: P15382.1); expressed in transfected cells; host or cells: Xenopus laevis oocytes (cRNA injection, Kv7.1:KCNE1 3:1 by weight)
- experiment_notes: Two-electrode voltage clamp of Kv7.1/KCNE1 expressed in Xenopus oocytes
- Assay type: cell-based
- protocol_conditions: 2 μM
measured_property: ΔV0.5 (voltage dependence of activation) (mV)

# compound, assayed_target, ΔV0.5 (voltage dependence of activation) / mV
records = [
    ("CCCCC/C=C\\C/C=C\\CCCCCCCC(=O)NCCS(=O)(=O)O [Lin-taurine, Linoleoyl taurine]", "Kv7.1/KCNE1 (Homo sapiens, UniProt P51787)", -12.3),
    ("CCCCC/C=C\\C/C=C\\CCCCCCCC(=O)NCC(=O)O [Lin-glycine]", "Kv7.1/KCNE1 (Homo sapiens, UniProt P51787)", -10.0),
    ("CCCCC/C=C\\C/C=C\\C/C=C\\C/C=C\\CCCC(=O)NCCS(=O)(=O)O [N-AT, N-arachidonoyl taurine]", "Kv7.1/KCNE1 (Homo sapiens, UniProt P51787)", 0.6),
    ("CCCCC/C=C\\C/C=C\\CC/C=C\\CCCC(=O)NCCS(=O)(=O)O [Pin-taurine]", "Kv7.1/KCNE1 (Homo sapiens, UniProt P51787)", -4.9),
]

[A] CCCCC/C=C\C/C=C\CC/C=C\CCCC(=O)NCC(=O)O [Pin-glycine]
[B] CC/C=C\C/C=C\C/C=C\C/C=C\C/C=C\C/C=C\CCC(=O)NCCS(=O)(=O)O [DHA-taurine]
[C] CC/C=C\C/C=C\C/C=C\C/C=C\C/C=C\C/C=C\CCC(=O)NCC(=O)O [DHA-glycine, docosahexaenoyl glycine]
Enquiry: Rank descending by ΔV0.5 (voltage dependence of activation). Dear reader, please state the labels in the requested order.
Return: A, C, B
(A: 2.3 mV, C: -5.8 mV, B: -17.5 mV)

* * *

- assayed_target: Cav1.2/β3/α2δ (Homo sapiens, UniProt Q13936)
- Construct: expressed in transfected cells; host or cells: Xenopus laevis oocytes (cRNA injection, Cav1.2:β3:α2δ 2:1:1 by weight)
- Sequence (Q13936 1-2138 isoform Q13936-20): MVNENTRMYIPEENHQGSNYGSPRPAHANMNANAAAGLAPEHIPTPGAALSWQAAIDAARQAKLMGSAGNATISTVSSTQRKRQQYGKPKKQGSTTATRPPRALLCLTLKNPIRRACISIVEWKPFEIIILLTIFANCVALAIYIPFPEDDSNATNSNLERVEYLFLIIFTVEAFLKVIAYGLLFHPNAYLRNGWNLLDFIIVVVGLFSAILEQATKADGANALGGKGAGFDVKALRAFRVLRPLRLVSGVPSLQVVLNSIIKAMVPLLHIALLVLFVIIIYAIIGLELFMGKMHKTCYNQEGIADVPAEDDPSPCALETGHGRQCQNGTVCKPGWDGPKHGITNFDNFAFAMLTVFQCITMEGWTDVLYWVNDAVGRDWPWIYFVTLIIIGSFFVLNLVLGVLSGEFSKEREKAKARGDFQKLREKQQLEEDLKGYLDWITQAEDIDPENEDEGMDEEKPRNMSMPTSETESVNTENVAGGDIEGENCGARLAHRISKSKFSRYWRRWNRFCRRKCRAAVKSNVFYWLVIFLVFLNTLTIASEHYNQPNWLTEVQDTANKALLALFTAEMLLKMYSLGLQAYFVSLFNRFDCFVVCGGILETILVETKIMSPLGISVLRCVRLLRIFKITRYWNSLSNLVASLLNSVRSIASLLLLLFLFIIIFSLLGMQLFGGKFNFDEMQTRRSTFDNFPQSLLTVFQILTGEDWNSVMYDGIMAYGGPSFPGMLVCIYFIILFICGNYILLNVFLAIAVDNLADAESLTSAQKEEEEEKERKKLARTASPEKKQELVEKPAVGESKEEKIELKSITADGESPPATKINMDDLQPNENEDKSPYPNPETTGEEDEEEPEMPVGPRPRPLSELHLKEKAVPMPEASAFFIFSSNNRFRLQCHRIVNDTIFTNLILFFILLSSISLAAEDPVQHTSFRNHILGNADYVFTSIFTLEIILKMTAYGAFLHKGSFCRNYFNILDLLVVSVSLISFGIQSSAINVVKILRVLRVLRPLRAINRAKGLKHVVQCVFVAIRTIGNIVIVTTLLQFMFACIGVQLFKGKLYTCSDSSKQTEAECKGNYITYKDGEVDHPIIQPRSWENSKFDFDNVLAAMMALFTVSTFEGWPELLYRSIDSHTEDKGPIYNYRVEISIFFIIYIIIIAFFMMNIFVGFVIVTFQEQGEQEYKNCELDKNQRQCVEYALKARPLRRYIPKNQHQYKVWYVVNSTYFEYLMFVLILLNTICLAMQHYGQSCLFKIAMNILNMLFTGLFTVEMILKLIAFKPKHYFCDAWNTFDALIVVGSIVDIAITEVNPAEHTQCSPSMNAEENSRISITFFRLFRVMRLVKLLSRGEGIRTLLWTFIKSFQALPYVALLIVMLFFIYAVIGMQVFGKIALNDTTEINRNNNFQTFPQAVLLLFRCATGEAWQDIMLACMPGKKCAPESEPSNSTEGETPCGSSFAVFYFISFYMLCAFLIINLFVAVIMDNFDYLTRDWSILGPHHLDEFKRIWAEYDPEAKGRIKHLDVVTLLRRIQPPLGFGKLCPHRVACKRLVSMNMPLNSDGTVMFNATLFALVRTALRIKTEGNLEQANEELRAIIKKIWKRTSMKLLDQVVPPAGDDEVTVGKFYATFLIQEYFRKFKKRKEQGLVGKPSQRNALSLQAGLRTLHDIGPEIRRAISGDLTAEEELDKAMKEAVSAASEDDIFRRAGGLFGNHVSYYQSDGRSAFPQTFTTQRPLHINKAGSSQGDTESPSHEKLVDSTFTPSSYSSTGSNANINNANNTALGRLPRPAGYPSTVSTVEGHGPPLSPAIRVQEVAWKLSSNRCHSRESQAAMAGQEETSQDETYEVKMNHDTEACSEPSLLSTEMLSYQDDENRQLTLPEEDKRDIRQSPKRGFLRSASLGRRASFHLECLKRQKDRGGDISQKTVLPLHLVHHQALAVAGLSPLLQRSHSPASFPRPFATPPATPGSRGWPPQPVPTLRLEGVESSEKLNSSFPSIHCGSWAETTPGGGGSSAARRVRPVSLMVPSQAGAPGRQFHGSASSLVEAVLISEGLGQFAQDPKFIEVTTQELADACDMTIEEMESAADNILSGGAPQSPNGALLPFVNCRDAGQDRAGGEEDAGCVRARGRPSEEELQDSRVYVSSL
- Sequence (P54286 whole entry partner): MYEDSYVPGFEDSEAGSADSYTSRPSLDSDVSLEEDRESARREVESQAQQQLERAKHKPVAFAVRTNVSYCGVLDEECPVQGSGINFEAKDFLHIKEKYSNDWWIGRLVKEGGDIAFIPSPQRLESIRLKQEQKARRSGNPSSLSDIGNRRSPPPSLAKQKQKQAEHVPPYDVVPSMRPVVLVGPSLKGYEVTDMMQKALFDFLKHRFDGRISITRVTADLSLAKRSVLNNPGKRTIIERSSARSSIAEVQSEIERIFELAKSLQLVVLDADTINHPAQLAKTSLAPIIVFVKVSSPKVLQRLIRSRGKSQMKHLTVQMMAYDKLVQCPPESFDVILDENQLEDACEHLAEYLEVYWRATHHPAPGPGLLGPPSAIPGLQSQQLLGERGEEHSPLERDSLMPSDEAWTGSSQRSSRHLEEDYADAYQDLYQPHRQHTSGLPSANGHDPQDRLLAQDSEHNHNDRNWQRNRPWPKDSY
- Sequence (P13806 27-960 partner): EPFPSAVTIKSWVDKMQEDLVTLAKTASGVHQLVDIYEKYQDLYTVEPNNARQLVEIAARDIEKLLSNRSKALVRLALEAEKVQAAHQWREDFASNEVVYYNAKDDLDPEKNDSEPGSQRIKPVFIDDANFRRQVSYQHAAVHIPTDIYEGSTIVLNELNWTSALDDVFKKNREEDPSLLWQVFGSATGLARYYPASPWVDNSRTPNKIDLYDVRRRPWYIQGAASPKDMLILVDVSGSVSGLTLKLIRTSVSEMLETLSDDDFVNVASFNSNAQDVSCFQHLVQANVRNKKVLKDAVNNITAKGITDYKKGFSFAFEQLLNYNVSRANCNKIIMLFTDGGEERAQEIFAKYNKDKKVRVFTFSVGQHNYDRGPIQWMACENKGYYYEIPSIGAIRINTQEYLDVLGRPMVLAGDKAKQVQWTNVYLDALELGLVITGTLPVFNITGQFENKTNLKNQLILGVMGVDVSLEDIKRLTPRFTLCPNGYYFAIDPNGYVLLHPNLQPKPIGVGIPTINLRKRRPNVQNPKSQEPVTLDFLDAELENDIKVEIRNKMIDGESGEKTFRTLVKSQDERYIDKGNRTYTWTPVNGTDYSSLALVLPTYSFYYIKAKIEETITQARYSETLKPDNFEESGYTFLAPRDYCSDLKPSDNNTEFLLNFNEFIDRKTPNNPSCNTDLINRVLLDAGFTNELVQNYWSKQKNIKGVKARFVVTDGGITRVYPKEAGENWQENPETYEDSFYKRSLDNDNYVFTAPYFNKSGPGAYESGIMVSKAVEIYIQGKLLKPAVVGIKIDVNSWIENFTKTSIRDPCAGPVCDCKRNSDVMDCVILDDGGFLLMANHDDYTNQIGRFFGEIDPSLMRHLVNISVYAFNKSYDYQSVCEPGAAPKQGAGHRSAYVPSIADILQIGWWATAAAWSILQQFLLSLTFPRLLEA
- Sequence (P13806 961-1106 partner): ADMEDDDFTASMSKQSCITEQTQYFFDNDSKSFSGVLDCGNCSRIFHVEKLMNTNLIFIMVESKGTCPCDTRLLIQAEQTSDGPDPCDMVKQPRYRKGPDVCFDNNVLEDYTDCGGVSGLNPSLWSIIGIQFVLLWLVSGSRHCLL
- experiment_notes: Two-electrode voltage clamp of Cav1.2/β3/α2δ expressed in Xenopus oocytes (Ba2+ as charge carrier)
- Format: cell-based
- protocol_conditions: 0.2 μM
measured_property: ΔV0.5 (voltage dependence of inactivation) (mV)
Numbers only; they are read as mV.

# molecule, assayed_target, observed_value
measured = [
    ("CCCCC/C=C\\C/C=C\\CC/C=C\\CCCC(=O)NCCS(=O)(=O)O [Pin-taurine]", "Cav1.2/β3/α2δ (Homo sapiens, UniProt Q13936)", 2.7),
    ("CCCCC/C=C\\C/C=C\\C/C=C\\C/C=C\\CCCC(=O)NCCS(=O)(=O)O [N-AT, N-arachidonoyl taurine]", "Cav1.2/β3/α2δ (Homo sapiens, UniProt Q13936)", 0.4),
    ("CCCCC/C=C\\C/C=C\\CC/C=C\\CCCC(=O)NCC(=O)O [Pin-glycine]", "Cav1.2/β3/α2δ (Homo sapiens, UniProt Q13936)", -3.2),
    ("CCCCC/C=C\\C/C=C\\CCCCCCCC(=O)NCCS(=O)(=O)O [Lin-taurine, Linoleoyl taurine]", "Cav1.2/β3/α2δ (Homo sapiens, UniProt Q13936)", 0.6),
    ("CCCCC/C=C\\C/C=C\\CCCCCCCC(=O)NCC(=O)O [Lin-glycine]", "Cav1.2/β3/α2δ (Homo sapiens, UniProt Q13936)", 0.1),
]

Record summary for CC/C=C\C/C=C\C/C=C\C/C=C\C/C=C\C/C=C\CCC(=O)NCC(=O)O [DHA-glycine, docosahexaenoyl glycine] : reported ΔV0.5 (voltage dependence of inactivation) = 6.1

Record summary for CC/C=C\C/C=C\C/C=C\C/C=C\C/C=C\C/C=C\CCC(=O)NCCS(=O)(=O)O [DHA-taurine] : reported ΔV0.5 (voltage dependence of inactivation) = 1.7
